The entries below are paired with their reported protein stability index.
assay: protein stability index of a GFP-peptide fusion (GPS, HEK-293T) (PSI 1-6); higher = more stable; settings: treatment: MLN4924 1 uM, 8 h; c terminus: a fixed tail appended;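 also: 24-mer peptide tiles fused after GFP, lentivirally expressed, FACS-sorted into six equal bins by GFP/DsRed ratio, decoded by Illumina sequencing, PSI is the read-weighted mean bin number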
READOUT NAME: protein stability index

{"INPUT SEQUENCE": "YQGLPVRCVKSIIRQVLQGLDYLH [SRPK2]", "READOUT NAME": "protein stability index", "READING": 2.59}
{"INPUT SEQUENCE": "VQERLTKQIAVAITEALRPAGVGV [GCH1]", "READOUT NAME": "protein stability index", "READING": 2.17}
{"INPUT SEQUENCE": "ARLLCRLQAFGETLLLELEQDSGV [ADAMTS4]", "READOUT NAME": "protein stability index", "READING": 2.73}
{"INPUT SEQUENCE": "NTGKTYFFVANKYWRYDEYKRSMD [MMP1]", "READOUT NAME": "protein stability index", "READING": 2.2}
{"INPUT SEQUENCE": "DASSSTSTSSSFPSSFPSSSSSSS [MAGEA10]", "READOUT NAME": "protein stability index", "READING": 5.23}

###

assay: protein stability index of a GFP-peptide fusion (GPS, HEK-293T) (PSI 1-6); higher = more stable; details: treatment: DMSO; c terminus: a fixed tail appended
We begin with a simple list: items and their reported protein stability index.

{"INPUT SEQUENCE": "KLKNTVTIQQEKLLAEKEEKLQKE [SASS6]", "protein stability index": 5.1}
{"INPUT SEQUENCE": "SRSVEDDKEGHLVCRIGDWLQERY [CLK3]", "protein stability index": 3.41}
{"INPUT SEQUENCE": "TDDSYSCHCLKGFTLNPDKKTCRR [MATN2]", "protein stability index": 3.27}
{"INPUT SEQUENCE": "TYKCTKQLLSERFGRGSRTVDLEL [ARFIP2]", "protein stability index": 2.43}

###

experiment: protein stability index of a GFP-peptide fusion (GPS, HEK-293T) (PSI 1-6); higher = more stable; details: treatment: DMSO; c terminus: a fixed tail appended
Reported protein stability index values for a set of sequences

{"INPUT SEQUENCE": "TAKDFIVGKSLTILGRTFFIYDCD [EFHC1]", "protein stability index": 2.93}
{"INPUT SEQUENCE": "TSPLTAEKLCIYTDNSIKPQELLE [CCND2]", "protein stability index": 4.05}
{"INPUT SEQUENCE": "GYRVSAALEEADKMFLRTREPALD [EID1]", "protein stability index": 3.9}
{"INPUT SEQUENCE": "TWTKHAEGGIFTSPNYPSKYPPDR [NETO1]", "protein stability index": 3.94}
{"INPUT SEQUENCE": "VYRDLKPENILLDRDGHIKLTDFG [PRKX]", "protein stability index": 3.07}
{"INPUT SEQUENCE": "FPGVVARPIGEFRSNADYQYQLLR [CNOT7]", "protein stability index": 3.05}
{"INPUT SEQUENCE": "STVKDCATIFALSTMTSSVQIYNL [ATL3]", "protein stability index": 3.08}
{"INPUT SEQUENCE": "VEKNEHCIENNIDLQVNRNFSLAT [R3HDM1]", "protein stability index": 4}
{"INPUT SEQUENCE": "SMISMGLFSIAPLIYGSMEMFPAA [JAGN1]", "protein stability index": 3.08}

###

assay: protein stability index of a GFP-peptide fusion (GPS, HEK-293T) (PSI 1-6); higher = more stable; settings: treatment: MLN4924 1 uM, 8 h; c terminus: a fixed tail appended
READOUT NAME: protein stability index

{"INPUT SEQUENCE": "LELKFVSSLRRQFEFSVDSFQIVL [TENT5D]", "READING": 2.91}
{"INPUT SEQUENCE": "SRNRDPGRLILSTIRLRPRQVLCE [PWWP2B]", "READING": 3.04}
{"INPUT SEQUENCE": "CGSRRERCGYRLVRRQRSADEQLH [ESR2]", "READING": 2.93}
{"INPUT SEQUENCE": "YKDTCHELDELQLCKNCFYLSNAR [ZMYND11]", "READING": 3.02}

###

experiment: protein stability index of a GFP-peptide fusion (GPS, HEK-293T) (PSI 1-6); higher = more stable; details: treatment: DMSO; c terminus: a fixed tail appended
Overview of reported protein stability index across a group of sequences:

{"INPUT SEQUENCE": "AIAPFQSAGSPPELQGLPELHEEC [NET1]", "protein stability index": 4.99}
{"INPUT SEQUENCE": "SWRVGVVRVRQDSGAEGHSHSCYH [TRIM35]", "protein stability index": 3.02}
{"INPUT SEQUENCE": "LAVSNMGARSKGQCPEPPIVVHCS [PTPN9]", "protein stability index": 3}
{"INPUT SEQUENCE": "PAPASSTPQEPWPGPTAPSPTSRP [PDLIM7]", "protein stability index": 5.07}
{"INPUT SEQUENCE": "LDSQTEIYQYVQNSMAPHPARDYV [DLC1]", "protein stability index": 2.99}
{"INPUT SEQUENCE": "ESGVSVSNSQPTNESHSIKAILKN [SLC29A1]", "protein stability index": 5.03}
{"INPUT SEQUENCE": "ELHEECEGNHPSARKLTAQRRAST [NET1]", "protein stability index": 4.92}
{"INPUT SEQUENCE": "TPASQSPKKPPAKDPLADLNIKDF [SNAP91]", "protein stability index": 5.06}
{"INPUT SEQUENCE": "LENDTISKQLTLEQLRREKIDLEN [CCDC6]", "protein stability index": 4.96}

###

test: protein stability index of a GFP-peptide fusion (GPS, HEK-293T) (PSI 1-6); higher = more stable; settings: treatment: MLN4924 1 uM, 8 h; c terminus: a fixed tail appended

{"INPUT SEQUENCE": "PYFRAMFTGELAESRQTEVVIRDI [KLHL20]", "protein stability index": 3.09}
{"INPUT SEQUENCE": "LLTRKVICKSDAPTGDVLLDEALK [GOLPH3]", "protein stability index": 2.91}
{"INPUT SEQUENCE": "VVPSYIPLVKKHCDDSFTPQEKLW [CPOX]", "protein stability index": 2.98}

###

assay: protein stability index of a GFP-peptide fusion (GPS, HEK-293T) (PSI 1-6); higher = more stable; conditions: treatment: MLN4924 1 uM, 8 h; c terminus: a fixed tail appended
Please mark T if the recorded protein stability index is equal to or greater than 4, and F if it falls below.

{"INPUT SEQUENCE": "EESRFCDAHLVLDGEEIPVQKNIL [GAN]", "ASSIGNED LABEL": "T"}
{"INPUT SEQUENCE": "SAEYVGHLRATEKMKTRELHRESS [HDAC6]", "ASSIGNED LABEL": "T"}
{"INPUT SEQUENCE": "GKKYNWSCDDLMGGGGLHSVGTYI [GFOD1]", "ASSIGNED LABEL": "F"}
{"INPUT SEQUENCE": "DEMCANNDFVQVDPGQVGLINSNV [FAN1]", "ASSIGNED LABEL": "T"}
{"INPUT SEQUENCE": "NCVSSVYLYYDPDYSFLSLGVYSA [ATE1]", "ASSIGNED LABEL": "F"}
{"INPUT SEQUENCE": "GPHTISNQNNYRLLSCGKILTGCK [ACSBG2]", "ASSIGNED LABEL": "F"}
{"INPUT SEQUENCE": "NRRDVEAWFFSKTEELNKEVASNT [KRT15]", "ASSIGNED LABEL": "T"}
{"INPUT SEQUENCE": "AAWCLHHICTNYNSVCSKFRKEIK [RHOBTB1]", "ASSIGNED LABEL": "F"}
{"INPUT SEQUENCE": "GTPMGTFAPLWEVFRVSSDKLALC [FCHO1]", "ASSIGNED LABEL": "F"}
{"INPUT SEQUENCE": "NSGHTIFNDPFFIVETVCIVWFSF [KCNA4]", "ASSIGNED LABEL": "F"}
{"INPUT SEQUENCE": "DNLSDLVMVRWNKSLEWSPWNCIL [IQUB]", "ASSIGNED LABEL": "F"}
{"INPUT SEQUENCE": "VQRTQSVPVRRPARRRQSAGPWPR [RASAL3]", "ASSIGNED LABEL": "T"}
{"INPUT SEQUENCE": "HGAHKAEKKLFECLTCGKSFRQGM [ZNF263]", "ASSIGNED LABEL": "F"}
{"INPUT SEQUENCE": "RFRFPSPILKVQYHPRDQNKVLVC [RBBP5]", "ASSIGNED LABEL": "F"}
{"INPUT SEQUENCE": "EAGAMTFHYIIEQGVCYLVLCEAA [SEC22B]", "ASSIGNED LABEL": "F"}
{"INPUT SEQUENCE": "KQCIVAHPVNPPYYIPLVELVPHP [CRYL1]", "ASSIGNED LABEL": "F"}
{"INPUT SEQUENCE": "MESRKDITNQEELWKMKPRRNLEE [STEAP1]", "ASSIGNED LABEL": "T"}
{"INPUT SEQUENCE": "KDDKDFTGTVHRIDNTTVIYNSNI [KCNA1]", "ASSIGNED LABEL": "T"}
{"INPUT SEQUENCE": "GGEAAHHTRSPYSTFYPPYHSPEL [NEUROD6]", "ASSIGNED LABEL": "F"}
{"INPUT SEQUENCE": "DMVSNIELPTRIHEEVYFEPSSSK [MIA2]", "ASSIGNED LABEL": "F"}
